- system_tested: 1,4-dihydroxy-2-naphthoyl-CoA synthase (Mycobacterium tuberculosis (strain ATCC 25618 / H37Rv))
- test_name: M. tuberculosis MenB inhibitors, primary screen, biochemical, absorbance (AID 540299)
- protocol_conditions: MenB enzyme assay, absorbance read-out; stronger effect = higher value; concentration not given here
The whole screen tested about 100,000 compounds, of which about 440 (0.44%) were called active. Many of the other results were omitted from the sample, so actives are more common in it than they were.
I'd appreciate it if you could supply inhibition values for the items below.

Look up inhibition for this compound: `Fc1ccc(CNCc2ccccn2)cc1`
-6.84% (inactive)

Look up inhibition for this compound: `Cn1c(=N)n(CC(=O)C23CC4CC(CC(C4)C2)C3)c2ccccc21`
-12% (inactive)

Look up inhibition for this compound: `Cc1ccc(-c2csc3ncnc(NCCO)c23)cc1`
-19.8% (inactive)

Look up inhibition for this compound: `CCC(=O)Nc1cc(NC(=O)c2ccco2)ccc1C`
3.59% (inactive)

Look up inhibition for this compound: CC1CCCCN1C(=O)c1ccc2ccccc2n1 (stereo not given)
-16.5% (inactive)

Look up inhibition for this compound: `CCN(CC)Cc1cc(C(=O)O)co1`
31.6% (active)

Look up inhibition for this compound: `CN1C(=O)CS/C1=C\C(=O)c1cccs1`
-16.1% (inactive)

Look up inhibition for this compound: `CCCC(=O)N1CCN(c2ccc(NC(=O)c3ccco3)cc2Cl)CC1`
36.3% (active)

Look up inhibition for this compound: CC(=O)NC1C(Oc2ccccc2)OC(CO)C(O)C1O (stereo not given)
-6.61% (inactive)

Look up inhibition for this compound: `O=C1CCC(=O)N1CNc1ccc(-c2ccccc2)cc1`
-8.33% (inactive)

Look up inhibition for this compound: `CCN(c1ccccc1)S(=O)(=O)c1cccc(C(=O)O)c1`
-9.9% (inactive)

Look up inhibition for this compound: `CN1C(C(=O)NC2CCCC2)=CC(c2cccs2)=NS1(=O)=O`
-18.8% (inactive)

Look up inhibition for this compound: `Cc1cccc(C(=O)Nc2ccc(NC(=O)c3ccco3)cc2)c1`
-25.7% (inactive)

Look up inhibition for this compound: `CN1CCN(n2c(-c3ccc(Cl)cc3)csc2=Nc2ccccc2)CC1`
-4.88% (inactive)

Look up inhibition for this compound: `COc1cc(C(=O)Nc2ccc3nc(N4CCN(c5ncccn5)CC4)cc(C)c3c2)cc(OC)c1OC`
2.12% (inactive)

Look up inhibition for this compound: `Clc1ncn(CCOc2ccccc2)c1Cl`
3.99% (inactive)

Look up inhibition for this compound: `Cc1cccc(-n2nnnc2SCC(=O)c2c[nH]c3ccccc23)c1`
-3.22% (inactive)

Look up inhibition for this compound: `COc1ccc2nc(SC)[nH]c2c1`
0.13% (inactive)

Look up inhibition for this compound: `CCOC(CSc1nnc2c3ccccc3n(CC)c2n1)OCC`
-14% (inactive)

Look up inhibition for this compound: `CCCC(=O)N1CCN(c2ccc(NC(=O)c3cccc(C)c3OC)cc2Cl)CC1`
-14.8% (inactive)

Look up inhibition for this compound: `O=C(COC(=O)Cn1[nH]c(=O)c2ccccc2c1=O)Nc1ncc(Cl)cc1Cl`
1.74% (inactive)

Look up inhibition for this compound: `CCn1nnnc1SCC(=O)c1ccc(C)cc1C`
33.1% (active)

Look up inhibition for this compound: `NCCN1C(=O)S/C(=C/c2cccs2)C1=O`
-14.2% (inactive)

Look up inhibition for this compound: `CCCC(CCC)C(=O)Nc1ccc(NC(=O)c2ccco2)cc1`
34.4% (active)

Look up inhibition for this compound: `O=C(On1c(-c2ccccc2)nc2ccccc2c1=O)c1cccc(C(F)(F)F)c1`
11.4% (inactive)
